Recorded values, source the supplement of paper PMC11003180.

test system: MDCK p60AmotL2-inducible + doxycycline (p60AmotL2 expressing); assay: drug sensitivity score (DSS) from 5-dose viability curve (DSS (area-based score, 0 = no response)); higher = more sensitive (stronger viability inhibition); extreme values may be limits of the assay; details: doxycycline: 10 ng/mL; 72 h
Exercise: for every item that follows, state its recorded drug sensitivity score.
Response field accepts a number only; no unit should be typed.

Query block: Fill blank: measured drug sensitivity score of the compound O=C(Nc1cccc(NC(=O)c2cccc(O)c2O)c1)c1cccc(O)c1O is ____.
Result block: 9.1

Query block: State the recorded drug sensitivity score for this entry: CC1(C)C(C(=O)Nc2ccc(S(=O)(=O)c3ccc(NC(=O)C4C(C)(C)C4(C)C)cc3)cc2)C1(C)C
Result block: 0

Query block: Entry under review: Cc1cc(OCc2nnc(SC3CCCC3)n2-c2cccnc2)ccc1-c1ccc(S(C)(=O)=O)cc1 . Reported drug sensitivity score?
Result block: 14.7

Query block: Entry CCn1c(-c2nonc2N)nc2cnc(Oc3cccc(NC(=O)c4ccc(OCCN5CCOCC5)cc4)c3)cc21 : reported drug sensitivity score = ?
Result block: 4

Query block: Sample O=C(Nc1c[nH]nc1-c1nc2ccc(CN3CCOCC3)cc2[nH]1)NC1CC1 — what was its drug sensitivity score?
Result block: 6.5

Query block: Query: drug sensitivity score; subject: C=CC(=O)N1CCC(Oc2cc3c(Nc4ccc(Cl)c(Cl)c4F)ncnc3cc2OC)CC1
Result block: 27.9

Query block: Fill blank: measured drug sensitivity score of the compound CN(C)C1CCN(C(=O)c2ccc(NC(=O)Nc3ccc(-c4nc(N5CCOCC5)nc(N5CCOCC5)n4)cc3)cc2)CC1 is ____.
Result block: 5.2

Query block: Item O=C(O)c1ccc(O)c2ncccc12 has what recorded drug sensitivity score?
Result block: 1.7
